tested on: ncRNAs (SEQ ID NO 28-89); assay: ncRNA arrays of melanocytes, keratinocytes, normal skin, melanoma cell lines and patient samples; design: species or system human; settings: melanoma patient 9 sample compared to normal skin
observable: ncRNA array expression, patient 9
Enter the number alone.

Which ncRNA array expression, patient 9 is reported for this substance? SEQ ID NO 48 (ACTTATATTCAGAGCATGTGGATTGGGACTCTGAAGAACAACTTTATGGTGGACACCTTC; listed as DNA, chemistry not given here; listed as Homo sapiens)
−0.2759

Which ncRNA array expression, patient 9 is reported for this substance? SEQ ID NO 45 (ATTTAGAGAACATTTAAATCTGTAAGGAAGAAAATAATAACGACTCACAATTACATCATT; listed as DNA, chemistry not given here; listed as Homo sapiens)
−1.8261

Which ncRNA array expression, patient 9 is reported for this substance? SEQ ID NO 63 (CTCACACGCACCCTTTCACTGTTTCTTAGTAATTTGTTTGTCTACAGACACAGACGGGAA; listed as DNA, chemistry not given here; listed as Homo sapiens)
−1.429

Which ncRNA array expression, patient 9 is reported for this substance? SEQ ID NO 53 (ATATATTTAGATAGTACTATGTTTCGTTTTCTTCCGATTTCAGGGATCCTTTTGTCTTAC; listed as DNA, chemistry not given here; listed as Homo sapiens)
−2.195

Which ncRNA array expression, patient 9 is reported for this substance? SEQ ID NO 69 (AGAGTTCGCACTGGGAAGAGTTAAAAAATAAACATTTACAAGGACGAGGAAAGCGGCCCC; listed as DNA, chemistry not given here; listed as Homo sapiens)
−1.618

* * *

tested on: ncRNAs (SEQ ID NO 28-89); test: ncRNA arrays of melanocytes, keratinocytes, normal skin, melanoma cell lines and patient samples; design: species or system human; conditions: melanoma patient 23 sample compared to normal skin
observable: ncRNA array expression, patient 23

Which ncRNA array expression, patient 23 is reported for this substance? SEQ ID NO 53 (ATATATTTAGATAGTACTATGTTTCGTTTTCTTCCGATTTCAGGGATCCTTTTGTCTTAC; listed as DNA, chemistry not given here; listed as Homo sapiens)
−3.175

Which ncRNA array expression, patient 23 is reported for this substance? SEQ ID NO 77 (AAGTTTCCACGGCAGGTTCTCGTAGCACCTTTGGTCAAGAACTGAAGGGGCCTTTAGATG; listed as DNA, chemistry not given here; listed as Homo sapiens)
0.23

Which ncRNA array expression, patient 23 is reported for this substance? SEQ ID NO 46 (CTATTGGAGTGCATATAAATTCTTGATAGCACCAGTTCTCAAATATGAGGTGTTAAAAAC; listed as DNA, chemistry not given here; listed as Homo sapiens)
0.6081

Which ncRNA array expression, patient 23 is reported for this substance? SEQ ID NO 48 (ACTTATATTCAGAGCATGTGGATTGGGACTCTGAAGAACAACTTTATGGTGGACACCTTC; listed as DNA, chemistry not given here; listed as Homo sapiens)
−0.4589

Which ncRNA array expression, patient 23 is reported for this substance? SEQ ID NO 34 (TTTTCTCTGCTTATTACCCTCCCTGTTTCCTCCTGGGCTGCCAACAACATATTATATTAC; listed as DNA, chemistry not given here; listed as Homo sapiens)
2.643
